Values compiled from patent US12708630B2.

- System: HT-1197
- Measurement Protocol: drug activity profiling cytotoxicity
- Format: cell-based
- Experimental Context: Homo sapiens, HT1197; HT-1197 cell line, Bladder; read-out: Aza-T-dCyd IC50
Measurement Kind: IC50 (µM)
A number alone suffices; assume µM.

# IC50 lookup, item Nc1ncn([C@H]2CC(O)[C@@H](CO)S2)c(=O)n1 (stereo partly shown)
7.13

---

- Measurement Protocol: Pharmacokinetic evaluation in Mice (Table 3)
- Format: in vivo
- Experimental Context: mouse, in vivo; Mice, Table 3, PO 0.5 mg/kg
Measurement Kind: Tmax (min)
A number alone suffices; assume min.

# Tmax lookup, item Nc1ncn([C@H]2CC(O)[C@@H](CO)S2)c(=O)n1 (stereo partly shown) [Aza-T-dCyd, 4′-thio-5-aza-2′-deoxycytidine]
18

---

- System: MC116
- Measurement Protocol: drug activity profiling cytotoxicity
- Format: cell-based
- Experimental Context: Homo sapiens; MC116 cell line, B-cell lymphoma; read-out: Aza-T-dCyd IC50
Measurement Kind: IC50 (nM)
A number alone suffices; assume nM.

# IC50 lookup, item Nc1ncn([C@H]2CC(O)[C@@H](CO)S2)c(=O)n1 (stereo partly shown) [Aza-T-dCyd, 4′-thio-5-aza-2′-deoxycytidine]
29.7

---

- Test system: DBTRG-05MG
- Measurement Protocol: drug activity profiling cytotoxicity
- Format: cell-based
- Experimental Context: Homo sapiens; DBTRG-05MG cell line, CNS (Glioma); read-out: Aza-T-dCyd IC50
Measurement Kind: IC50

# IC50 lookup, item Nc1ncn([C@H]2CC(O)[C@@H](CO)S2)c(=O)n1 (stereo partly shown)
> 10 µM

---

- Measurement Protocol: Pharmacokinetic evaluation in Rat
- Type: in vivo
- Experimental Context: in vivo; Rat, PO 1 mg/kg
Measurement Kind: Tmax (h)
A number alone suffices; assume h.

# Tmax lookup, item Nc1ncn([C@H]2CC(O)[C@@H](CO)S2)c(=O)n1 (stereo partly shown)
1.17

---

- Measurement Protocol: Pharmacokinetic evaluation in Mice (Table 3)
- Type: in vivo
- Experimental Context: mouse, in vivo; Mice, Table 3, PO 3 mg/kg
Measurement Kind: AUC(0-inf) (ng·h/mL)
A number alone suffices; assume ng·h/mL.

# AUC(0-inf) lookup, item Nc1ncn([C@H]2CC(O)[C@@H](CO)S2)c(=O)n1 (stereo partly shown)
931

---

- Measurement Protocol: Pharmacokinetic evaluation in Rat
- Assay type: in vivo
- Experimental Context: in vivo; Rat, PO 0.5 mg/kg
Measurement Kind: AUC(0-inf) (ng·h/mL)
A number alone suffices; assume ng·h/mL.

# AUC(0-inf) lookup, item Nc1ncn([C@H]2CC(O)[C@@H](CO)S2)c(=O)n1 (stereo partly shown)
303

---

- Test system: SW982
- Measurement Protocol: drug activity profiling cytotoxicity
- Format: cell-based
- Experimental Context: Homo sapiens; SW982 cell line, Sarcoma; read-out: Aza-T-dCyd IC50
- Experimental: To obtain a biomarker for Aza-T-dCyd, drug activity profiling analysis was performed to evaluate the cytotoxicity of 200 cell lines. The drug responsiveness analysis of Aza-T-dCyd through drug activity profiling and genomic analysis of 200 cell lines confirmed the potent efficacy of Aza-T-dCyd in various solid tumors (Table 2).
Measurement Kind: IC50 (nM)
A number alone suffices; assume nM.

# IC50 lookup, item Nc1ncn([C@H]2CC(O)[C@@H](CO)S2)c(=O)n1 (stereo partly shown) [Aza-T-dCyd, 4′-thio-5-aza-2′-deoxycytidine]
171
